Consider the following compounds and their measured Normal melting temperature readings.
conditions: Crystal
recorded_endpoint: Normal melting temperature (°C)

* COC(=O)OC [dimethyl carbonate] | 5.01
* CCCCCCCCCCCCO | 23.36
* O=C(Oc1ccccc1)Oc1ccccc1 [diphenyl carbonate] | 80.81
* Cc1ncc[nH]1 | 146.23
